Hello, the source for this data is ChEMBL document CHEMBL1201862, in case you need it.

- Target system: Protein RecA (Mycobacterium tuberculosis)
- Sequence (P9WHJ3 whole entry): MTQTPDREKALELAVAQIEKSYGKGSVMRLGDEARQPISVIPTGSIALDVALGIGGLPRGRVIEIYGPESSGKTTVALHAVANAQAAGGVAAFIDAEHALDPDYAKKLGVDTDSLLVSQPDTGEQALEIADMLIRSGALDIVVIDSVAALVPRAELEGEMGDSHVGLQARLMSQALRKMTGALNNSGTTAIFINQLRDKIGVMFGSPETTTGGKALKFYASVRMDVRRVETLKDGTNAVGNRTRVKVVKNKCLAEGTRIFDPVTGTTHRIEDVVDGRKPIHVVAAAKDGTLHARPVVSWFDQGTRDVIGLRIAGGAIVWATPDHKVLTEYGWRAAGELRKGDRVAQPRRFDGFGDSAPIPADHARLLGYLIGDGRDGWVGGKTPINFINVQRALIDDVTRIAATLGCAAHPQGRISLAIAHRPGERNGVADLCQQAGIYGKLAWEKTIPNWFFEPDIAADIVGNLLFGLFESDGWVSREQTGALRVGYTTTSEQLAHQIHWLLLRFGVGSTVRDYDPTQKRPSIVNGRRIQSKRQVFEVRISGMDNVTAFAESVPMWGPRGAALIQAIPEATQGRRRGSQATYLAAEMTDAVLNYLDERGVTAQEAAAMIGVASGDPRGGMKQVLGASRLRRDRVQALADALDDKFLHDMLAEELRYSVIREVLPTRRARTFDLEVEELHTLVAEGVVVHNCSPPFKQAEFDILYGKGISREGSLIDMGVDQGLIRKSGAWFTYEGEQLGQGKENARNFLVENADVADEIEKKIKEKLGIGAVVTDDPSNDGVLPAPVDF
- Assay protocol: Fluorescence Cell-Free Homogeneous Dose Retest to Identify Inhibitors of RecA-Intein Splicing Activity. [Related pubchem assays (depositor defined):AID2097, AID2223, AID489010, AID492950]
- Type: functional
The source made the active and inactive calls. Rule as the data show it: actives have a measured EC50 and inactives only a lower limit.
Possible outcomes: Y for active, N for inactive

Molecule | Category
CC(=O)Nc1ccc(S(=O)(=O)[N-]C2=C(n3cc[n+](-c4ccccn4)c3)C(=O)c3ccccc3C2=O)cc1 | Y
O=C(NC1=C(NC2CCS(=O)(=O)C2)C(=O)c2ccccc2C1=O)c1ccccc1 (configuration not stated) | Y
CCOc1ccc(N2C(=O)/C(=C\c3ccc(O)c(OC)c3)S(=O)(=O)C2c2cccc([N+](=O)[O-])c2)cc1 (configuration not stated) | Y
CN1CCc2nc(SCC(=O)Nc3ccc(F)cc3)c(C#N)cc2C1 | Y
CCOC(=O)c1cnc2ccc(C)cc2c1Sc1ccc(F)cc1 | Y
COc1cccc(N/C([S-])=C(/C(=O)c2ccc(C)c([N+](=O)[O-])c2)[n+]2ccccc2)c1 | Y
O=Cc1s/c(=N\S(=O)(=O)c2ccccc2)n(CCCCl)c1Cl | Y
O=C1NC(=S)S/C1=C\c1nc2ccccc2[nH]1 | N
COc1ccc(C(=O)Nc2ccc(O)c3ccccc23)cc1 | Y
C=CCOC(=O)C1=C(C)NC(=O)NC1c1ccc(OC(=O)c2ccco2)c(OC)c1 (configuration not stated) | Y
COc1cccc(C(C[N+](=O)[O-])c2c(C)[nH]n(-c3ccccc3)c2=O)c1 (configuration not stated) | Y
CCCNC1=C(N(C(C)=O)c2cccc(F)c2)C(=O)c2ccccc2C1=O | Y
